# Target desc: epidermal growth factor acceptor-tyrosinekinase complex (Homo sapiens)
# Construct: endogenous in cells; host or cells: A-431 (membrane specimen, not solubilized)
# Sequence (P00533 25-1210): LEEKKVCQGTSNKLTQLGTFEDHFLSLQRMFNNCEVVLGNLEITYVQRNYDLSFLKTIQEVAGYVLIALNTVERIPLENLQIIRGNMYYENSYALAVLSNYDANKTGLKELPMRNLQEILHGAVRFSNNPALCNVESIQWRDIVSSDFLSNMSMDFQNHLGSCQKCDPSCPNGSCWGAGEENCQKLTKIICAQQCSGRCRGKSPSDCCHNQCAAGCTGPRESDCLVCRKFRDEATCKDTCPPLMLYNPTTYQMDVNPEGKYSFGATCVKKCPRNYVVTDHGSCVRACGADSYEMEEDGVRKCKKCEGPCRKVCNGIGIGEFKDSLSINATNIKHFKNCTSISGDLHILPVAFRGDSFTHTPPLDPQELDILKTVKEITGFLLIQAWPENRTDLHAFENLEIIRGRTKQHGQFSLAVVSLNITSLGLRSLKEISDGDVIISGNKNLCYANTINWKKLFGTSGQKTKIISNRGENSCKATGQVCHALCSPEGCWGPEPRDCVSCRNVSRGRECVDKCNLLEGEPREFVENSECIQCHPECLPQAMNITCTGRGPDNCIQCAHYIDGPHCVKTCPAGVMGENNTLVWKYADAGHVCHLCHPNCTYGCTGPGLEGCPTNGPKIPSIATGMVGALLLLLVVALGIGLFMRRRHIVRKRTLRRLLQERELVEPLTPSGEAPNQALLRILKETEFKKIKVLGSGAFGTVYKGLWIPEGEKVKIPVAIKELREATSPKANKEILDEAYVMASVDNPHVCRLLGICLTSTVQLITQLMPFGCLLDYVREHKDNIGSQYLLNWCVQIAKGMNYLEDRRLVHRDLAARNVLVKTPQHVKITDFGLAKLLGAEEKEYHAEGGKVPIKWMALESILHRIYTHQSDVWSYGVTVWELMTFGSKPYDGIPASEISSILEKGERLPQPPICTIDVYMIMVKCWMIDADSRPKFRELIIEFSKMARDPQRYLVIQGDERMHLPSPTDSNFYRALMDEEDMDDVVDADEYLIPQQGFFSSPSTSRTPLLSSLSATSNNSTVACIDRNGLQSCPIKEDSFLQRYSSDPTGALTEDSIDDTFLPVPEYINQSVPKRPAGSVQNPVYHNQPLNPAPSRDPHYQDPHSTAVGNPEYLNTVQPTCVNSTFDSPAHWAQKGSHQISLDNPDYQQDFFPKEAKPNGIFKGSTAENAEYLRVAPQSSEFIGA
# Sequence (P01132 977-1029 partner limits assumed): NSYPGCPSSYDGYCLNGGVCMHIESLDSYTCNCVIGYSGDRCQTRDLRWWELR
# Experiment: Tyrosinekinase inhibitory activity (A-431 membrane specimen, EGF-stimulated, [γ-32P]ATP)
# Assay type: biochemical, human (A-431 cell line derived from human cancerous cell)
# Assay conditions: 100 μM; read-out: Inhibition rate (tyrosinekinase)
Documented inhibition at 100 µM across a set of compounds
Only the number, expressed in %, is required.

Reference set, count: 3
In [3]: df
Out[3]:
                           smiles_structure            value_kind  value_reported
0  CCOc1cc(C=C(C#N)C(N)=O)cc(CSc2ccccc2)c1O  inhibition at 100 µM             100
1     CCOc1cc(C=C2CCNC2=O)cc(CSc2ccccc2)c1O  inhibition at 100 µM             100
2  CCOC(=O)C(=Cc1cc(CSc2ccccc2)c(O)c(OCC)c1)S(C)(=O)=O  inhibition at 100 µM              80

## Input Could you share what inhibition at 100 µM was measured for `CCOc1cc(C=C2CCOC2=O)cc(CSc2ccccc2)c1O` , tested on epidermal growth factor acceptor-tyrosinekinase complex (Homo sapiens)?
## Output 50

## Input Could you share what inhibition at 100 µM was measured for `CCOc1cc(C=C2C(=O)NN(c3ccccc3)C2=O)cc(CSc2ccccc2)c1O` , tested on epidermal growth factor acceptor-tyrosinekinase complex (Homo sapiens)?
## Output 100
